system: PC-3 prostate; experiment: NCI tumour cell line growth inhibition, 48 h; in the data active = GI50 below about 0.43 µM; inactive = the rest
Outcomes: 1 (active), 0 (inactive)

compound	discrete.label
CCOC(=O)Nc1ccc2nc(N3CCCCCC3)sc2c1	0
O=C1Nc2ccc(O)cc2/C1=C\c1ccncc1	0
NS(=O)(=O)c1ccc(N=Nc2c(O)[nH]c3ccc(C(=O)NCCc4cnc[nH]4)cc23)cc1	0
Cc1cc(O[C@@H]2O[C@@H](C)[C@H](O)[C@@H](O)[C@H]2O)c2c3c(c(O[C@@H]4O[C@@H](C)[C@H](O)[C@@H](O)[C@H]4O)cc2c1)C(=O)c1c(O)cccc1C3=O	0
Cc1cncc(-c2nc(NCCc3c[nH]c4ccccc34)c3ncn(C(C)C)c3n2)c1	0
O=C(COc1cccc(/C=C2\COc3ccccc3C2=O)c1)c1ccccc1	0
CS(=O)(=O)O[C@H]1C(=O)N(c2cc3c4ccccc4ccc3c3ccccc23)[C@@H]1c1ccccn1	1
c1ccc(COCC[P+](c2ccccc2)(c2ccccc2)c2ccccc2)cc1	0
COC1=CC(c2ccc[nH]2)=N/C1=C\c1[nH]c(C)c(C(=O)Oc2ccccc2)c1C	1
COc1ccc2nc3cc(Cl)ccc3c(NCCNCC(O)CO)c2c1 (centres undefined)	0
Cc1ccc(/C=C(/C#N)n2nnc3ncccc32)cc1	0
Nc1c(C(=O)c2ccc(C#CCN3CCOCC3)cc2)cnn1-c1ccc(F)cc1	0
C=C1C(=O)O[C@@H]2C[C@@H]1CC[C@]1(C)O[C@H]1CC/C(C)=C/CC[C@@]2(C)O	0
CS(=O)(=O)c1ccc2c(c1)C(=O)c1c-2n(CCCBr)c(=O)c2cc([N+](=O)[O-])ccc12	0
O=c1c2cccc(F)c2sc2c(NCCCNCCO)nc3ccccc3c12	0
Cc1cc(I)cc(CNCCN2CCOCC2)c1O	0
Clc1ccc(-c2nc3c(-c4ccccc4)nc(-c4ccccc4)cn3c2-c2ccc(Cl)cc2)cc1	0
Cc1ccc(S(=O)(=O)OCC(=O)Nc2ccc(C(=O)O)c(O)c2)cc1	0
C[C@]12CCCN1CC1=NNC(=O)c3cc(F)cc4[nH]c2c1c34	0

* * *

TGI for assorted compounds
tested on: ACHN renal; assay: NCI tumour cell line growth inhibition, 48 h

compound	target.system	TGI
CCc1cccc(C)c1N1C(=O)C(=O)C(c2nc3ccccc3o2)/C(=N/NC(=S)NN)C1=O (stereo not given)	ACHN renal	> 100 µM
CCNC(=O)Oc1ccc(/C(=C(\C)c2ccc(Cl)cc2)c2ccc(OCCN(CC)CC)cc2)cc1	ACHN renal	14.6 µM
NC1=NCC(CN2CCCCC2)O1 (stereo not given)	ACHN renal	> 100 µM
CC(C)=CC1C(COC(=O)c2ccccc2Cl)C1(C)C (stereo not given)	ACHN renal	> 100 µM
Brc1c2c(c(Br)c3nsnc13)N=S=N2	ACHN renal	72.2 µM
CC1=NNC(=O)C1C1CC(c2c[nH]c3ccccc23)=NN(c2ccccc2)C1=O (stereo not given)	ACHN renal	> 100 µM
O=C(CCC(=O)Nc1ccc(Cl)cc1)CC(=O)c1ccc2ccccc2c1	ACHN renal	> 100 µM
CON=C1C[C@]2(C[C@@H]3C[C@@H](C/C=C(\C)C[C@@H](C)/C=C/C=C4\CO[C@@H]5[C@H](O)C(C)=C[C@@H](C(=O)O3)[C@]45O)O2)O[C@H](/C(C)=C/C(C)C)[C@H]1C	ACHN renal	29.3 µM
COc1ccc(OC)c(N=Cc2cc(OC)c(OC)c(OC)c2)c1	ACHN renal	> 100 µM
CNCCCn1c2c(c3ccc(Cl)cc3c1=O)C(=O)c1cc(OC)cnc1-2	ACHN renal	1.58 µM
CC1(c2nc3ccccc3[nH]2)CCC(C#N)C(C)(C)O1 (stereo not given)	ACHN renal	> 100 µM
C/C(=N\Nc1nc2ccccc2o1)c1ncccn1	ACHN renal	11.3 µM
CC(O)CC(=O)CO[C@H]1[C@H](O)[C@@H](O)[C@@H](O)[C@@H]2NC(=O)c3c(cc4c(c3O)OCO4)[C@H]21 (stereo not given in full)	ACHN renal	0.613 µM
CN1C(=O)N/C(=C\c2ccc(S(=O)(=O)N/N=C/c3ccccc3)cc2)C1=O	ACHN renal	> 100 µM
CCCC(=O)N(C)N=Nc1ccc(C(=O)OCC)cc1	ACHN renal	> 100 µM
COc1cccc(C2c3cc4c(cc3OC(NNC(N)=O)C2C)OCO4)c1O (stereo not given)	ACHN renal	> 44.4 µM
COc1cccc(N2C(=O)/C(=C/c3ccc(N(CCC#N)CCC#N)cc3)N=C2c2cc([N+](=O)[O-])ccc2Cl)c1	ACHN renal	> 100 µM
O=C(NCCCl)NCCN1c2nc3ccccc3cc2Sc2cc3ccccc3nc21	ACHN renal	> 45.9 µM
CN1C(c2ccccc2)CC(C)(O)CC1c1ccccc1 (stereo not given)	ACHN renal	> 100 µM
COc1ccc(/C(=C/c2ccc3ccccc3c2)c2nn[nH]n2)cc1OC	ACHN renal	> 100 µM
